- tgt: UniProt:Q2M2I8
- Sequence (Q2M2I8 whole entry): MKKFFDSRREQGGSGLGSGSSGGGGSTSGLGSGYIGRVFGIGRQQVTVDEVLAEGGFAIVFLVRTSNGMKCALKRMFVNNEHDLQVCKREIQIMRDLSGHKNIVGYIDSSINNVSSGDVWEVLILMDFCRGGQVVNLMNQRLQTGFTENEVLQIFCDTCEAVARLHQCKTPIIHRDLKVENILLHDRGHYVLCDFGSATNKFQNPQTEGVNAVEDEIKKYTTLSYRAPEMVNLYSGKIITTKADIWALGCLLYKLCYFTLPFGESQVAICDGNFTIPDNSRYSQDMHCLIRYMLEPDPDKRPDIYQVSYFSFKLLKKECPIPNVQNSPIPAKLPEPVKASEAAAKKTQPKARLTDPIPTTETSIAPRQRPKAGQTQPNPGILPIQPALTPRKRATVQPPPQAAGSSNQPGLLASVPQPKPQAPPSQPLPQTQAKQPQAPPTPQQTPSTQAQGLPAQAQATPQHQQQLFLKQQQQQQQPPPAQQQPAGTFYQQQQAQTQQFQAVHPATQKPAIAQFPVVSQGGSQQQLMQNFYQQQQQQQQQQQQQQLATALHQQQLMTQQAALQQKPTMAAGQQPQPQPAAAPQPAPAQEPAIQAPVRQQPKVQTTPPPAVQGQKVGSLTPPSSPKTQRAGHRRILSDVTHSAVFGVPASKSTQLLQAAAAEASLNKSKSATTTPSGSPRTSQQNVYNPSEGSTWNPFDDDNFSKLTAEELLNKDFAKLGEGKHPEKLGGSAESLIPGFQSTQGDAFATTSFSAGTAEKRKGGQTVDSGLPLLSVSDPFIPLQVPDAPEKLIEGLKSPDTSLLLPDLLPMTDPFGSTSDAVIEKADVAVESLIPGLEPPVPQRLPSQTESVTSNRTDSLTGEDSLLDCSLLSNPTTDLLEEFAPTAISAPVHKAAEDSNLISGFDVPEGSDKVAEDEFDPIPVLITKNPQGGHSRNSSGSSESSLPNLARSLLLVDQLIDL
- protocol notes: NanoBRET target engagement assay, intact and permeabilized cells
- measurement conditions: AAK1 permeabilized (IC50±sd)/μM, NanoBRET, permeabilized cells; mean of duplicates
outcome measure: IC50 (µM)

Worked set:
CC(=O)N[C@H](C(=O)N1C[C@H](O)C[C@H]1C(=O)NCc1ccc(-c2scnc2C)cc1OCCOCCOCCOCCOCCC(=O)N1CCN(c2cc(Nc3cc(C4CC4)[nH]n3)nc(Nc3ccc(CC#N)cc3)n2)CC1)C(C)(C)C [4-d]	0.038
CC(C)(C)OC(=O)N1CCN(c2cc(Nc3cc(C4CC4)[nH]n3)nc(Nc3ccc(CC#N)cc3)n2)CC1 [compound 4]	0.003
CC(=O)N[C@H](C(=O)N1C[C@H](O)C[C@H]1C(=O)NCc1ccc(-c2scnc2C)cc1OCCOCCOCCOCCNC(=O)c1cc(Nc2cc(C3CC3)[nH]n2)nc(Nc2ccc(CC#N)cc2)n1)C(C)(C)C [5-b]	0.192
Cc1ncsc1-c1ccc(CNC(=O)[C@@H]2C[C@@H](O)CN2C(=O)[C@@H](NC(=O)CCOCCOCCOCCN2CCN(c3cc(Nc4cc(C5CC5)[nH]n4)nc(Nc4ccc(CC#N)cc4)n3)CC2)C(C)(C)C)cc1 [4-a]	0.057
Cc1ncsc1-c1ccc(CNC(=O)[C@@H]2C[C@@H](O)CN2C(=O)[C@@H](NC(=O)CCOCCOCCOCCOCCN2CCN(c3ccc(Nc4ncc(Cl)c(Nc5ccccc5C(N)=O)n4)cc3)CC2)C(C)(C)C)cc1 [6-b]	0.055

a = NC(=O)c1ccccc1Nc1nc(Nc2ccc(N3CCNCC3)cc2)ncc1Cl [compound 6]
b = Cc1ncsc1-c1ccc(CNC(=O)[C@@H]2C[C@@H](O)CN2C(=O)[C@@H](NC(=O)CCOCCOCCNC(=O)c2cc(Nc3cc(C4CC4)[nH]n3)nc(Nc3ccc(CC#N)cc3)n2)C(C)(C)C)cc1 [5-a]
c = Cc1ncsc1-c1ccc(CNC(=O)[C@@H]2C[C@@H](O)CN2C(=O)[C@@H](NC(=O)CCOCCOCCOCCOCCOCCOCCN2CCN(c3cc(Nc4cc(C5CC5)[nH]n4)nc(Nc4ccc(CC#N)cc4)n3)CC2)C(C)(C)C)cc1 [4-b]
d = Cc1ncsc1-c1ccc(CNC(=O)[C@@H]2C[C@@H](O)CN2C(=O)[C@@H](NC(=O)CCCCCCN2CCN(c3ccc(Nc4ncc(Cl)c(Nc5ccccc5C(N)=O)n4)cc3)CC2)C(C)(C)C)cc1 [6-d]
Query :: // sort entries: IC50, high to low Sort and list the labels as requested.
Result :: b, c, d, a
(b: 0.162 µM, c: 0.081 µM, d: 0.053 µM, a: 0.004 µM)

Every entry's value here was drawn from paper PMC11851430.
